- test-details: Intrinsic clearance in Beagle dog hepatocytes
- Assay type: ADME, cell-based, Canis lupus familiaris, Hepatocyte
- conditions-used: read-out: CLH (converted)
measurement-name: CLint scaled (mL/min/kg)
The reply should contain only the number, in mL/min/kg.

Req: Which value of CLint scaled has been reported for `O=C1c2cc(-c3ccc(OC(F)(F)F)cc3)ccc2OCCN1Cc1ncccn1` in the records?
Resp: 1

* * *

What half-life was measured for each of the following?
- test-details: Metabolic stability in human microsomes assessed as half life
- Type: ADME, Microsome
The reply should contain only the number, in h.

Req: Which value of half-life has been reported for `O=C1c2cc(-c3ccc(C(F)(F)F)cc3)ccc2OCCN1Cc1ncccn1` in the records?
Resp: 5.8

Req: Which value of half-life has been reported for `O=C1c2cc(-c3ccc(OC(F)(F)F)cc3)ccc2OCCN1Cc1ccccn1` in the records?
Resp: 2.5

Req: Which value of half-life has been reported for `O=C1c2cc(-c3ccc(Cl)c(F)c3)ccc2OCCN1Cc1ncccn1` in the records?
Resp: 5.5

Req: Which value of half-life has been reported for `O=C1c2cc(-c3ccc(OC(F)(F)F)c(Cl)c3)ccc2OCCN1Cc1ncccn1` in the records?
Resp: 6.55

Req: Which value of half-life has been reported for `O=C1c2cc(-c3ccc(OC(F)(F)F)cc3)ccc2OCCN1Cc1ncccc1F` in the records?
Resp: 2.48

Req: Which value of half-life has been reported for `O=C1c2cc(-c3ccc(Cl)cc3)ccc2OCCN1Cc1ncccn1` in the records?
Resp: 3.23

Req: Which value of half-life has been reported for `O=C1c2cc(-c3cccc(OC(F)(F)F)c3)ccc2OCCN1Cc1ncccn1` in the records?
Resp: 4.95

Req: Which value of half-life has been reported for `O=C1c2cc(-c3ccc(OC(F)(F)F)cc3)ccc2OCCN1Cc1ncccn1` in the records?
Resp: 6.58

* * *

- test-details: Permeability of compound across basolateral to apical side in human Caco-2 cells
- Type: ADME, cell-based
- conditions-used: read-out: permeability
measurement-name: Papp B→A
# output: number + unit

Req: Which value of Papp B→A has been reported for O=C1c2cc(-c3ccc(OC(F)(F)F)cc3)ccc2OCCN1Cc1ncccn1 [ELECLAZINE] in the records?
Resp: 29 ×10⁻⁶ cm/s

* * *

- test-details: Intrinsic clearance in human hepatocytes
- Assay type: ADME, cell-based, Hepatocyte
- conditions-used: read-out: CLH
measurement-name: CLint scaled

Req: Which value of CLint scaled has been reported for O=C1c2cc(-c3ccc(OC(F)(F)F)cc3)ccc2OCCN1Cc1ncccn1 [ELECLAZINE] in the records?
Resp: < 0.25 mL/min/kg

* * *

- target-or-system: Sodium channel protein type 1 subunit alpha (Homo sapiens, UniProt P35498)
- test-details: Inhibition of NaV1.1 (unknown origin) at 10 Hz frequency by whole cell manual patch clamp technique
measurement-name: pIC50
Remember, pIC50 is on a log scale: it is -log10 of the molar concentration.

Req: For Sodium channel protein type 1 subunit alpha (Homo sapiens, UniProt P35498), provide pIC50 of `O=C1c2cc(-c3ccc(OC(F)(F)F)cc3)ccc2OCCN1Cc1ncccn1` please.
Resp: 4.02

* * *

- test-details: Clearance in iv dosed cynomolgus monkey
- Type: ADME, organism-based, Macaca fascicularis
- conditions-used: in vivo
measurement-name: clearance (mL/min/kg)
The reply should contain only the number, in mL/min/kg.

Req: Which value of clearance has been reported for `O=C1c2cc(-c3ccc(OC(F)(F)F)cc3)ccc2OCCN1Cc1ncccn1` in the records?
Resp: 1.83
